assaySystem: T1, human Fc-PD-L2 (R&D systems) (human, UniProt Q9BQ51 20-219)
T1 construct: Bought Fc fusion coated on the ELISA plate; also called human PD-L2; not shown: Fc part of the bought fusion protein
T1 sequence: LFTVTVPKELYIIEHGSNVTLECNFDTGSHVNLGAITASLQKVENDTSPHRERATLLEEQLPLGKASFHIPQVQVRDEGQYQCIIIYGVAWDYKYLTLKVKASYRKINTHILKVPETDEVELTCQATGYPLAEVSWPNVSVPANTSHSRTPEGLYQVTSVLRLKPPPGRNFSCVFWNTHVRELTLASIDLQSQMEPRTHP
procedureText: competition ELISA on coated human Fc-PD-L2; competitor biotinylated 24F.10C12
For each record, write down the corresponding IC50.
Answer by giving the amount and then stating its unit.

Check out these entries, answers already filled in.
[
  {
    "binder": "24F.10C12 composite, human antibody VH4/VK4 (antibody, V domains shown, V regions cloned into vectors containing human constant regions (quantified against an IgG1/kappa standard; isotype not expressly stated)) VH: QVQLVQSGAEVKKPGASVKVSCKASGYTFTGYTMHWVRQAPGQGLEWIGYINPRSGYTEYNQKFKDRTTLTADKSTSTAYMELSSLRSEDTAVYYCARPWFAYWGQGTLVTVSS VL: DIVMTQSPAFLSVTPGEKVTITCKSSQSLLNSGNQKNYLTWYQQKPGQPPKLLIYWASTRESGVPDRFSGSGSGTDFTLTISSLQAEDVAVYYCQNDYSYPLTFGQGTKLEIK",
    "IC50": "0.58 µg/mL"
  },
  {
    "binder": "24F.10C12 composite, human antibody VH4/VK2 (antibody, V domains shown, V regions cloned into vectors containing human constant regions (quantified against an IgG1/kappa standard; isotype not expressly stated)) VH: QVQLVQSGAEVKKPGASVKVSCKASGYTFTGYTMHWVRQAPGQGLEWIGYINPRSGYTEYNQKFKDRTTLTADKSTSTAYMELSSLRSEDTAVYYCARPWFAYWGQGTLVTVSS VL: DIVMTQSPASLSVTPGEKVTITCKSSQSLLNSGNQKNYLTWYQQKPGQPPKLLIYWASTRESGVPDRFTGSGSGTDFTLTISSLQAEDVAVYYCQNDYSYPLTFGQGTKLEIK",
    "IC50": "0.6 µg/mL"
  },
  {
    "binder": "24F.10C12 composite, human antibody VH2/VK3 (antibody, V domains shown, V regions cloned into vectors containing human constant regions (quantified against an IgG1/kappa standard; isotype not expressly stated)) VH: QVQLVQSGAEVKKPGASVKMSCKASGYTFTGYTMHWVKQAPGQGLEWIGYINPRSGYTEYNQKFKDRTTLTADKSTSTAYMELSSLRSEDTAVYYCARPWFAYWGQGTLVTVSS VL: DIVMTQSPAFLSVTPGEKVTITCKSSQSLLNSGNQKNYLTWYQQKPGQPPKLLIYWASTRESGVPDRFTGSGSGTDFTLTISSLQAEDVAVYYCQNDYSYPLTFGQGTKLEIK",
    "IC50": "0.59 µg/mL"
  }
]

Turning now to a further binder:
Param item = mouse anti-human PD-L2 antibody 24F.10C12 (antibody, V domains shown, Mouse monoclonal antibody; also called Biotin-24F.10C12) VH: QVQLQQSAAELARPGASVKMSCKASGYTFTGYTMHWVKQRPGQGLEWIGYINPRSGYTEYNQKFKDKTTLTADKSSSTAYMQLSSLTSEDSAVYYCARPWFAYWGQGTLVTVSA VL: DIVMTQSPSSLTVTAGEKVTMSCKSSQSLLNSGNQKNYLTWYQQKPGQPPKLLIYWASTRESGVPDRFTGSGSGTDFTLTISSVQAEDLAVYYCQNDYSYPLTFGAGTKLELK ; retrieve measured IC50.
0.52 µg/mL
